# TARGET DESC: bovine cardiac myofibrils (full-length cardiac myosin ATPase in the native sarcomere) (Bos taurus (Bovine), UniProt Q9BE39)
# Sequence (Q9BE39 whole entry): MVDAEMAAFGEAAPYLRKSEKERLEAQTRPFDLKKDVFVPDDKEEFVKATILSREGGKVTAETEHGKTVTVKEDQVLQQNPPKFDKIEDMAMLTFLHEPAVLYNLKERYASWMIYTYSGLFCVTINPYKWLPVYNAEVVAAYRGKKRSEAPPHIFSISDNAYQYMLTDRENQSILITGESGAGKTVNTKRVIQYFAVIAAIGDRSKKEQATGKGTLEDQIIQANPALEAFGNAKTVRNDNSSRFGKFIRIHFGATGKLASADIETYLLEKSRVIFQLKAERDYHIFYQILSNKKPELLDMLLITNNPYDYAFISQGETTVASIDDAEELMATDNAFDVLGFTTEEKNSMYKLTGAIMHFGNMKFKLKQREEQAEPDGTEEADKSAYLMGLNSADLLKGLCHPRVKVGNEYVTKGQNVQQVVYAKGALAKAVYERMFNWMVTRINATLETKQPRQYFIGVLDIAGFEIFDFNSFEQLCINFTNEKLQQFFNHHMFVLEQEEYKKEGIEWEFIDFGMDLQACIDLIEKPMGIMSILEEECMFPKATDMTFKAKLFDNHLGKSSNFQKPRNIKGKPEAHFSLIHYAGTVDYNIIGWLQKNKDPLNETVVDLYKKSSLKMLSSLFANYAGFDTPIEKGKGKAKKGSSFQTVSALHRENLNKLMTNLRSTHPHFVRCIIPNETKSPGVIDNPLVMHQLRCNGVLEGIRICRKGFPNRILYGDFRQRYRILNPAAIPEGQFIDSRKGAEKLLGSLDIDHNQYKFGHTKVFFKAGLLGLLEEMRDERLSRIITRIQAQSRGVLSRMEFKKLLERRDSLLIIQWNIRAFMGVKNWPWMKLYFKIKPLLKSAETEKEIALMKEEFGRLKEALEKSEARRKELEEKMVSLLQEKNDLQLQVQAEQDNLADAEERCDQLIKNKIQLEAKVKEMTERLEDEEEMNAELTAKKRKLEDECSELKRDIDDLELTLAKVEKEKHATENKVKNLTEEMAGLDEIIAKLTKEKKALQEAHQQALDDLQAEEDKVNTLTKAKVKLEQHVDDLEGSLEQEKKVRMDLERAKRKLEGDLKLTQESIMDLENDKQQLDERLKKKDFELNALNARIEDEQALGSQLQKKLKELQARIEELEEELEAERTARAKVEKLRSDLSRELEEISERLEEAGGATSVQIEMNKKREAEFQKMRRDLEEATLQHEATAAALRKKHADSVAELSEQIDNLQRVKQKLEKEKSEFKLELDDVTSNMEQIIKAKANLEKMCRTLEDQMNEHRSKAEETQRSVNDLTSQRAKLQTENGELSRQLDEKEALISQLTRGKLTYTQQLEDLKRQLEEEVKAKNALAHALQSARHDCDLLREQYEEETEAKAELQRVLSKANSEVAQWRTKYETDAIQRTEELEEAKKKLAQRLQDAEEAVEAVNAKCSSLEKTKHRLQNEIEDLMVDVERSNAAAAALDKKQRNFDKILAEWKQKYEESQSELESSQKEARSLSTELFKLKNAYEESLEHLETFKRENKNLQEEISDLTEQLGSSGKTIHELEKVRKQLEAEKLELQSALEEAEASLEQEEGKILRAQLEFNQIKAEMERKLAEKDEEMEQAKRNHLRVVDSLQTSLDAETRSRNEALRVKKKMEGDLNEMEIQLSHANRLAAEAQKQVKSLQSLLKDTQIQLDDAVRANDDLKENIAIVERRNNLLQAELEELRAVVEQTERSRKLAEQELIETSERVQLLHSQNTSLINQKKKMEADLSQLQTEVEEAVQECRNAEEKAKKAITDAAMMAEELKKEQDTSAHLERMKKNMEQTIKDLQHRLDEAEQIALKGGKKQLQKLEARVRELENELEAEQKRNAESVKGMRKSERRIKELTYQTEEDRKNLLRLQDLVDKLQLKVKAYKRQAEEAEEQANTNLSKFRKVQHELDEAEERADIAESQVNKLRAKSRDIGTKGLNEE
# Sequence (P85100 whole entry partner): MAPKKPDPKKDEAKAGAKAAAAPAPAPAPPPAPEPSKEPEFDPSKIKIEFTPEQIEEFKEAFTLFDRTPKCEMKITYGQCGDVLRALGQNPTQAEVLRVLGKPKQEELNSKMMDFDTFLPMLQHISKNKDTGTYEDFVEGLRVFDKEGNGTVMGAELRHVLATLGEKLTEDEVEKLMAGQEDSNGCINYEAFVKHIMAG
# Sequence (Q3SZE5 whole entry partner): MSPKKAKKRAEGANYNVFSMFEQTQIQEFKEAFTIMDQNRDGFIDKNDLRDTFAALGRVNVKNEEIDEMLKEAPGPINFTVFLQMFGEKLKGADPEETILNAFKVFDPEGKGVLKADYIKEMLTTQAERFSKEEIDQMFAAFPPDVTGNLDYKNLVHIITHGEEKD
# ASSAY NAME: Skinned bovine cardiac myofibril ATPase assay (PK/LDH-coupled)
# CONDITION SET: Ca2+ activating to 75% of maximal rate, read-out: CDMF75 IC50
pIC50: −log10 of the molar value.
QUANTITY MEASURED: pIC50

INSERT INTO assay_data (molecule, operator, reported) VALUES
  ('CCc1nc(-c2ccc3c(c2)CC[C@H]3NC(=O)c2cc(CO)ccn2)no1 [Compound 652]', '=', 5.82),
  ('COCc1nc(-c2ccc3c(c2)CC[C@H]3NC(=O)c2cn[nH]c2)no1 [Compound 490]', '=', 5.16),
  ('Cc1cc(C(=O)NC2CCc3cc(-c4noc(C(F)F)n4)ccc32)ccn1 (centres unmarked) [Compound 5]', '=', 5.29),
  ('O=C(N[C@@H]1CCc2cc(-c3noc(C4CCC4)n3)ccc21)c1cnn(CCO)c1 [Compound 524]', '=', 5.14),
  ('Cc1cc(C(=O)N[C@@H]2CCc3cc(-c4cnc(C)o4)ccc32)ccn1 [Compound 135]', '<', 4.41),
  ('CCc1nc(-c2ccc3c(c2)CC[C@H]3NC(=O)c2ccnc(C(F)F)c2)no1 [Compound 578]', '=', 5.92),
  ('COC(=O)Cc1nc(-c2ccc3c(c2)CC[C@H]3NC(=O)c2cnn(C)c2)no1 [Compound 544]', '=', 4.41),
  ('COCc1nc(-c2ccc3c(c2)CC[C@H]3NC(=O)c2cccc(C(C)O)c2)no1 (some centres unmarked) [Compound 722]', '=', 5.25);

* * *

# TARGET DESC: bovine cardiac myofibrils (full-length cardiac myosin ATPase in the native sarcomere) (Bos taurus (Bovine))
# ASSAY NAME: Skinned bovine cardiac myofibril ATPase assay (PK/LDH-coupled)
# Type: biochemical
# CONDITION SET: Ca2+ activating to 75% of maximal rate, concentration giving 15% inhibition
# Description: To evaluate the effect of compounds on the ATPase activity of full-length cardiac myosin in the context of the native sarcomere, skinned myofibril assays were performed. […] Small molecule agents were assessed for their ability to inhibit the steady-state ATPase activity of bovine cardiac myofibrils using pyruvate kinase and lactate dehydrogenase (PK/LDH)-coupled enzyme system. This assay regenerates myosin-produced ADP into ATP by oxidizing NADH, producing an absorbance change at 340 nm. […]
# CDMF75 IC15 values compiled below
QUANTITY MEASURED: CDMF75 IC15

INSERT INTO measurements (compound, quantity_measured, reported) VALUES
  ('Cn1nccc1C(=O)NC1COc2cc(-c3noc(C4CC4)n3)ccc21 (centres unmarked) [Compound 221]', 'CDMF75 IC15', '600 nM'),
  ('CCc1nc(-c2ccc3c(c2)CC[C@H]3NC(=O)OCC(C)C)no1 [Compound 322]', 'CDMF75 IC15', '300 nM'),
  ('O=C(N[C@@H]1CCc2cc(-c3noc(C(F)F)n3)ccc21)c1ccc(=O)n(CCO)c1 [Compound 656]', 'CDMF75 IC15', '1900 nM'),
  ('CCOC(=O)N[C@@H]1CCc2cc(-c3noc(C(F)F)n3)ccc21 [Compound 278]', 'CDMF75 IC15', '1300 nM'),
  ('Cc1cc(C(=O)N[C@H]2CCc3cc(-c4nnn(C)n4)ccc32)ccn1 [Compound 149]', 'CDMF75 IC15', '39200 nM'),
  ('Cn1nnc(C(=O)N[C@@H]2CCc3cc(-c4nc(C(F)F)no4)ccc32)n1 [Compound 216]', 'CDMF75 IC15', '1300 nM'),
  ('CCc1nc(-c2ccc3c(c2)CC[C@H]3NC(=O)c2cnn(CC3COC3)c2)no1 [Compound 506]', 'CDMF75 IC15', '4500 nM'),
  ('COCc1nc(-c2ccc3c(c2)OC[C@H]3NC(=O)c2cccc([C@H](C)O)c2)no1 [Compound 736]', 'CDMF75 IC15', '1200 nM');

* * *

# TARGET DESC: bovine cardiac myofibrils (full-length cardiac myosin ATPase in the native sarcomere) (Bos taurus (Bovine), UniProt Q9BE39)
# ASSAY NAME: Skinned bovine cardiac myofibril ATPase assay (PK/LDH-coupled)
# Format: biochemical
# CONDITION SET: Ca2+ activating to 75% of maximal rate, read-out: CDMF75 IC50
pIC50: −log10 of the molar value.
QUANTITY MEASURED: pIC50

INSERT INTO assay_data (compound, quantity_measured, operator, reported) VALUES
  ('CCc1nc(-c2ccc3c(c2)CC[C@H]3NC(=O)c2ncoc2C)no1 [Compound 622]', 'pIC50', '=', 5.44),
  ('[2H]C([2H])([2H])C(=O)N[C@@H]1COc2cc(-c3noc(CC)n3)ccc21 [Compound 445]', 'pIC50', '=', 5.52),
  ('Cn1cc(C(=O)NC2COc3cc(-c4noc(C(F)F)n4)ccc32)cn1 (centres unmarked) [Compound 219]', 'pIC50', '=', 5.60),
  ('CCc1nc(-c2ccc3c(c2)CC[C@H]3NC(=O)c2nnc(C)o2)no1 [Compound 618]', 'pIC50', '=', 5.96),
  ('Cc1nn(C)cc1C(=O)NC1CCc2cc(-c3noc(C(C)C)n3)ccc21 (centres unmarked) [Compound 75]', 'pIC50', '=', 5.51),
  ('CCc1noc(-c2ccc3c(c2)CC[C@H]3NC(=O)c2cnn(C)c2)n1 [Compound 254]', 'pIC50', '=', 5.31),
  ('Cc1ncoc1C(=O)N[C@@H]1CCc2cc(-c3noc(C4CC4)n3)ccc21 [Compound 390]', 'pIC50', '=', 6.00),
  ('Cc1c(C(=O)NC2CCc3cc(-c4noc(C(F)F)n4)ccc32)cnn1C (centres unmarked) [Compound 27]', 'pIC50', '=', 5.48),
  ('Cn1cc(C(=O)NC2CCc3cc(-c4noc(C(F)F)n4)ccc32)c(C(F)(F)F)n1 (centres unmarked) [Compound 40]', 'pIC50', '=', 4.79),
  ('CCc1cc(C(=O)N[C@@H]2CCc3cc(-c4noc(CC)n4)ccc32)ccn1 [Compound 660]', 'pIC50', '=', 5.70),
  ('COCc1nc(-c2ccc3c(c2)CC[C@H]3NC(=O)c2cc(CO)ccc2F)no1 [Compound 671]', 'pIC50', '=', 4.52),
  ('Cn1cc(C(=O)NC2CCc3cc(-c4noc(C(F)F)n4)ccc32)cn1 (centres unmarked) [Compound 7]', 'pIC50', '=', 5.32),
  ('CCc1nc(-c2ccc3c(c2)CC[C@H]3NC(=O)c2cc(O)no2)no1 [Compound 634]', 'pIC50', '=', 5.68),
  ('CCc1nc(-c2ccc3c(c2)CC[C@H]3NC(=O)[C@H]2CCNC(=O)C2)no1 [Compound 355]', 'pIC50', '=', 4.96),
  ('Cc1nccc(C(=O)NC2CCc3cc(-c4noc(C(F)F)n4)ccc32)n1 (centres unmarked) [Compound 26]', 'pIC50', '=', 4.52),
  ('CCc1nc(-c2ccc3c(c2)CC[C@H]3NC(=O)c2ocnc2C(F)(F)F)no1 [Compound 639]', 'pIC50', '=', 5.96),
  ('Cc1cc(C(=O)NC2CCc3cc(-c4nc(C)co4)ccc32)ccn1 (centres unmarked) [Compound 173]', 'pIC50', '<', 4.41);

* * *

# TARGET DESC: bovine cardiac myofibrils (full-length cardiac myosin ATPase in the native sarcomere) (Bos taurus (Bovine))
# ASSAY NAME: Skinned bovine cardiac myofibril ATPase assay (PK/LDH-coupled)
# CONDITION SET: Ca2+ activating to 75% of maximal rate, read-out: CDMF75 IC50
# Method: To evaluate the effect of compounds on the ATPase activity of full-length cardiac myosin in the context of the native sarcomere, skinned myofibril assays were performed. […] Small molecule agents were assessed for their ability to inhibit the steady-state ATPase activity of bovine cardiac myofibrils using pyruvate kinase and lactate dehydrogenase (PK/LDH)-coupled enzyme system. This assay regenerates myosin-produced ADP into ATP by oxidizing NADH, producing an absorbance change at 340 nm. […]
Category scheme (IC50): band A = under 2 µM, band B = from 2 µM up to 5 µM, band C = 5 µM and over

INSERT INTO measurements (molecule, assigned_class) VALUES
  ('CCc1nc(-c2ccc3c(c2)OC[C@H]3NC(=O)c2cnc(C)o2)no1 [Compound 464]', 'band A'),
  ('O=C(N[C@@H]1COc2cc(-c3noc(C(F)F)n3)ccc21)c1ccnc(CO)c1 [Compound 709]', 'band B'),
  ('CCn1nc(C)c(C(=O)NC2CCc3cc(-c4noc(C(F)F)n4)ccc32)n1 (centres unmarked) [Compound 20]', 'band C'),
  ('Cn1nccc1C(=O)N[C@@H]1CCc2cc(-c3cnccn3)ccc21 [Compound 368]', 'band C'),
  ('CC(C)(O)C(=O)N[C@@H]1CCc2cc(-c3noc(C(F)F)n3)ccc21 [Compound 290]', 'band C'),
  ('COCCn1cc(C(=O)N[C@@H]2CCc3cc(-c4noc(C(F)F)n4)ccc32)cn1 [Compound 529]', 'band C'),
  ('Cn1nccc1C(=O)N[C@@H]1CCc2cc(-c3noc(C(F)F)n3)ccc21 [Compound 92]', 'band A'),
  ('O=C(N[C@@H]1CCc2cc(-c3noc(C(F)F)n3)ccc21)N1CCOCC1 [Compound 301]', 'band C'),
  ('Cc1cc(-c2ccc3c(c2)OC[C@H]3NC(=O)c2cn[nH]c2C)no1 [Compound 434]', 'band B'),
  ('CCc1nc(-c2ccc3c(c2F)CC[C@H]3NC(=O)c2cnn(C)c2)no1 [Compound 562]', 'band A'),
  ('O=C(N[C@@H]1CCc2cc(-c3noc(C(F)F)n3)ccc21)C1CCCO1 (some centres unmarked) [Compound 293]', 'band C'),
  ('[2H]C([2H])([2H])c1nc(-c2ccc3c(c2)OC[C@H]3NC(=O)c2cnn(C)c2C)no1 [Compound 269]', 'band B'),
  ('Cc1nc(-c2ccc3c(c2)CC[C@H]3NC(=O)c2ccnn2C)no1 [Compound 107]', 'band A'),
  ('Cc1nc(-c2ccc3c(c2)CC[C@H]3NC(=O)OC2CCC2)no1 [Compound 319]', 'band C'),
  ('Cc1cc(C(=O)N[C@@H]2CCc3cc(-c4nc(C)no4)ccc32)ccn1 [Compound 131]', 'band C'),
  ('COCc1nc(-c2ccc3c(c2)OC[C@H]3NC(=O)c2cc(CO)ccn2)no1 [Compound 713]', 'band C');
